Reference for the values: paper PMC2475631

- TARGET DESC: T1, MRF4;E47 (Rattus norvegicus;Mus musculus, UniProt P19335;P15806-2 1-242;1-648, |)
- T1 sequence 1: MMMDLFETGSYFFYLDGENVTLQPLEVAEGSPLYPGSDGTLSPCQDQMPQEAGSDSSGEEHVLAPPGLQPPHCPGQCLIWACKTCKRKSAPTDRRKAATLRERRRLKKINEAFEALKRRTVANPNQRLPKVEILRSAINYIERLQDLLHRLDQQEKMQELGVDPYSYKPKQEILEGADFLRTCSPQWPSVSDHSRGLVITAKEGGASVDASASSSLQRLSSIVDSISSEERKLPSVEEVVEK
- T1 sequence 2: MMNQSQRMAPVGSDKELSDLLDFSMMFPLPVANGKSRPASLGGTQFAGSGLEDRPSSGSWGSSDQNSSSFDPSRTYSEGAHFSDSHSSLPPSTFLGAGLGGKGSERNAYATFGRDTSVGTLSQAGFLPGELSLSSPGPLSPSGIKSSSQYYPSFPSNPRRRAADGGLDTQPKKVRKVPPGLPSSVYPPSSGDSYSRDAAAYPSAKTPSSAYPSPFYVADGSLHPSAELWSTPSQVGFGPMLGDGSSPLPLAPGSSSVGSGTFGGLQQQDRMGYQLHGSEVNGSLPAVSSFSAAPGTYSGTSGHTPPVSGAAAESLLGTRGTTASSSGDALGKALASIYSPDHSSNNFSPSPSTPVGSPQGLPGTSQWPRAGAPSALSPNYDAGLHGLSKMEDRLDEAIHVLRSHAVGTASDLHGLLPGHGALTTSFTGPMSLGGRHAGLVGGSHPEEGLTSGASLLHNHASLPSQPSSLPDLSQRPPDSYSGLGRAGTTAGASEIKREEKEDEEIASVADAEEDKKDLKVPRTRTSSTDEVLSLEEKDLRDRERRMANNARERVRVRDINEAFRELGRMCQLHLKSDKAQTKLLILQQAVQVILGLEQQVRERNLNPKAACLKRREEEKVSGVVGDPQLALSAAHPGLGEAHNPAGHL
- EXPERIMENT SUMMARY: EMSA
The entries below come with measured pKd values attached.
FYI, pKd means -log10 of a concentration in mol per litre.

>  <BINDER>
E-box DNA (dsDNA) DNA 1: TCGATCCCCCAACACCTGCTGCCTGA DNA 2: TCAGGCAGCAGGTGTTGGGGGACGA

>  <pKd>
9.70

$$$$

From here, focus on the item given below.
Per the record, CATGGGGGCGGGAAGGGGCGGGGTCT (structured_DNA) [G'2 integrin DNA] has pKd of 7.71
